assayed system: rat MCH-1R (Rattus norvegicus)
Sequence (P97639 whole entry): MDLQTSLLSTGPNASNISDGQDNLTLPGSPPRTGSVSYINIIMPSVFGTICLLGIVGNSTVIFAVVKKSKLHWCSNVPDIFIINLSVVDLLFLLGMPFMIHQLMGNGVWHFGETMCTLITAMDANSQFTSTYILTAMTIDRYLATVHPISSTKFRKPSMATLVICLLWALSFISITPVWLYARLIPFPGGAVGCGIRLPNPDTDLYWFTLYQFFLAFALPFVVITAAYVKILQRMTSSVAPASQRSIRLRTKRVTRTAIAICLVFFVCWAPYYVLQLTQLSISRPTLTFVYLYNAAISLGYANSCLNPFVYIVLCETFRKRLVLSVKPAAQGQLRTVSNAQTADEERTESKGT
assay: Aequorin bioluminescence functional assay, MCH-1R agonist activity
condition context: 293-AEQ17 cells expressing rat MCH-1R
Where a SMILES comes first, the peptide text is derived from it. Bridges are numbered along the chain shown (N, C = ends). [ ]: non-standard residue; d: D form. The star is where a group is joined. Pentanoyl(5-guanidino) = NC(N)=NCCCCC(=O)*; dNle = CCCC[C@@H](N)C(=O)O; Nle = CCCC[C@H](N)C(=O)O; Ava = NCCCCC(=O)O
MCH-1R Agonist Activation % below 4% gives No; MCH-1R Agonist Activation % at or above it gives Yes.

[ask] // inclusive: MCH-1R Agonist Activation % at least 4%? input: CCCC[C@@H]1NC(=O)[C@@H](NC(=O)CCCCNC(=N)N)CSSC[C@@H](C(N)=O)NC(=O)CCCCNC(=O)CCCCNC(=O)[C@H](Cc2ccc(O)cc2)NC(=O)[C@H](C(C)C)NC(=O)[C@H](CCCNC(=N)N)NC(=O)CNC(=O)[C@H](CC(C)C)NC1=O [SEQ. ID. NO. 16] ({Pentanoyl(5-guanidino)}-C[Nle]LGRVY[Ava][Ava]C-NH2; disulfide 1-10; C-terminus assumed)
[reply] No

[ask] What do you get for CC(=O)N[C@@H](CCCNC(=N)N)C(=O)N[C@H]1CSSC[C@@H](C(N)=O)NC(=O)CCCCNC(=O)CCCCNC(=O)[C@H](Cc2ccc(O)cc2)NC(=O)[C@H](C(C)C)NC(=O)[C@H](CCCNC(=N)N)NC(=O)CNC(=O)[C@H](CC(C)C)NC(=O)[C@H](C)NC1=O [SEQ. ID. NO. 22] (Ac-RCALGRVY[Ava][Ava]C-NH2; disulfide 2-11; C-terminus assumed) ?
[reply] No

[ask] Same for CSCC[C@@H]1NC(=O)[C@@H](NC(=O)CCCCNC(=N)N)CSSC[C@@H](C(=O)O)NC(=O)CCCCNC(=O)CCCCNC(=O)[C@H](Cc2ccc(O)cc2)NC(=O)[C@H](C(C)C)NC(=O)[C@H](CCCNC(=N)N)NC(=O)CNC(=O)[C@H](CC(C)C)NC1=O [SEQ. ID. NO. 18]
[reply] No

[ask] Consider next the compound CSCC[C@@H]1NC(=O)[C@@H](NC(=O)CCCCNC(=N)N)CSSC[C@@H](C(N)=O)NC(=O)CCCNC(=O)CCCNC(=O)[C@H](Cc2ccc(O)cc2)NC(=O)[C@H](C(C)C)NC(=O)[C@H](CCCNC(=N)N)NC(=O)CNC(=O)[C@H](CC(C)C)NC1=O [SEQ. ID. NO. 13] in the same way.
[reply] No

[ask] Request: CSCC[C@@H]1NC(=O)[C@H](NC(=O)CCCCNC(=N)N)CSSC[C@@H](C(N)=O)NC(=O)CCCCNC(=O)CCCCNC(=O)[C@H](Cc2ccc(O)cc2)NC(=O)[C@H](C(C)C)NC(=O)[C@H](CCCNC(=N)N)NC(=O)CNC(=O)[C@H](CC(C)C)NC1=O [SEQ. ID. NO. 25]
[reply] No

For the next question, use this compound.
[ask] Entry CCCC[C@H]1NC(=O)[C@H](CC(C)C)NC(=O)[C@H](CCSC)NC(=O)[C@@H](NC(=O)[C@H](CCCNC(=N)N)NC(C)=O)CSSC[C@@H](C(N)=O)NC(=O)CCCCNC(=O)CCCCNC(=O)[C@H](Cc2ccc(O)cc2)NC(=O)[C@H](C(C)C)NC(=O)[C@H](CCCNC(=N)N)NC1=O [SEQ. ID. NO. 26] (Ac-RCML[dNle]RVY[Ava][Ava]C-NH2; disulfide 2-11; C-terminus assumed) : is its MCH-1R Agonist Activation % no less than 4%?
[reply] Yes
